target: B1R receptor of the rat (Rattus norvegicus, UniProt P97583); construct: host or cells: CHO K1 cells (Chinese hamster ovary), stably transfected; assay: Functional study on the bradykinin receptor 1 (B1R), FLIPR Ca2+ assay, rB1R cells; assay type: cell-based; details: CHO-K1, test substance 10 μM, agonist Des-Arg9-bradykinin 100 nM, % inhibition compared with the maximum achievable inhibition, read-out: B1R Antagonism, rat [10 μM] % Inhibition
Sequence (P97583 whole entry): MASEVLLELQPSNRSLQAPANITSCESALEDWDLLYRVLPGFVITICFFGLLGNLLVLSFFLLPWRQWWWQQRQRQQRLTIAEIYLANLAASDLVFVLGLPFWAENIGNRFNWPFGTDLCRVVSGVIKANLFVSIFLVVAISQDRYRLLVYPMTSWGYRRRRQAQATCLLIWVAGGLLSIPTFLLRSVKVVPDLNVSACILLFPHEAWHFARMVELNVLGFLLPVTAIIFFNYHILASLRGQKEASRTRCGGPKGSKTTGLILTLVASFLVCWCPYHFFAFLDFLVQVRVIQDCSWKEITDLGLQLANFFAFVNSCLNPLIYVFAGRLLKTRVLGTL
Measured Quantity: inhibition at 10 µM

>  <Molecule>
COc1cc(C)c(S(=O)(=O)N2CCCC2COCC(=O)NCCCN2CCCCC2)c(C)c1 (stereo not shown)

>  <Target Entity>
B1R receptor of the rat (Rattus norvegicus, UniProt P97583)

>  <Measured Quantity>
inhibition at 10 µM

>  <Value>
98.7%

$$$$
>  <Molecule>
COc1cc(C)c(S(=O)(=O)N2CCCC2COCC(=O)NCC2CCCN(Cc3ccccc3)C2)c(C)c1 (stereo not shown)

>  <Target Entity>
B1R receptor of the rat (Rattus norvegicus, UniProt P97583)

>  <Measured Quantity>
inhibition at 10 µM

>  <Value>
103%

$$$$
>  <Molecule>
CC(C)N(Cc1ccc(N(C)C)cc1)C(=O)COCC1CCCCN1S(=O)(=O)c1c(Cl)cccc1Cl (stereo not shown)

>  <Target Entity>
B1R receptor of the rat (Rattus norvegicus, UniProt P97583)

>  <Measured Quantity>
inhibition at 10 µM

>  <Value>
101%

$$$$
>  <Molecule>
O=C(COCC1CCCN1S(=O)(=O)c1c(Cl)cccc1Cl)N1CCN(Cc2ccc(Br)cc2)CC1 (stereo not shown)

>  <Target Entity>
B1R receptor of the rat (Rattus norvegicus, UniProt P97583)

>  <Measured Quantity>
inhibition at 10 µM

>  <Value>
103%

$$$$

----------
target: human B1R receptor (Homo sapiens, UniProt P46663); construct: host or cells: CHO K1 cells (Chinese hamster ovary), stably transfected; experiment: Functional study on the bradykinin receptor 1 (B1R), FLIPR Ca2+ assay, hB1R cells; format: cell-based; conditions: CHO-K1, test substance 10 μM, agonist Lys-Des-Arg9-bradykinin 0.5 nM, % inhibition compared with the maximum achievable inhibition, read-out: B1R Antagonism, human [10 μM] % Inhibition
Sequence (P46663 whole entry): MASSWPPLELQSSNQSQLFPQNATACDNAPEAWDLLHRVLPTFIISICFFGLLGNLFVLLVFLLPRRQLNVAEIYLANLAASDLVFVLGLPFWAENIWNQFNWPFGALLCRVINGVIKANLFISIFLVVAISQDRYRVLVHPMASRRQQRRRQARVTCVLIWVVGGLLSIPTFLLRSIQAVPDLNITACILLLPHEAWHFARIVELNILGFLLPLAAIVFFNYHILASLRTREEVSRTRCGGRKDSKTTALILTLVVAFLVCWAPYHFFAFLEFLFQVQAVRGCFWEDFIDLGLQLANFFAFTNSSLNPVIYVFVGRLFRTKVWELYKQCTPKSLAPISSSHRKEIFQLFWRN
Structures can show the parent of a compound that is named as a salt.
Measured Quantity: inhibition at 10 µM (%)

>  <Molecule>
O=C(COCC1CCCN1S(=O)(=O)c1c(Cl)cc(Cl)cc1Cl)N1CCN(c2ccncc2)CC1 (centres unmarked) [Example 335]

>  <Target Entity>
human B1R receptor (Homo sapiens, UniProt P46663)

>  <Measured Quantity>
inhibition at 10 µM

>  <Value>
106

$$$$
>  <Molecule>
COc1cc(C)c(S(=O)(=O)N2CCCCC2COCC(=O)NCC2CCN(Cc3ccccc3)C2)c(C)c1 (centres unmarked) [Example 414]

>  <Target Entity>
human B1R receptor (Homo sapiens, UniProt P46663)

>  <Measured Quantity>
inhibition at 10 µM

>  <Value>
101

$$$$
>  <Molecule>
COc1cc(C)c(S(=O)(=O)N2CCCCC2COCC(=O)N2CCN(C3CCN(C)CC3)CC2)c(C)c1.Cl.Cl (centres unmarked) [Example 97, dihydrochloride]

>  <Target Entity>
human B1R receptor (Homo sapiens, UniProt P46663)

>  <Measured Quantity>
inhibition at 10 µM

>  <Value>
98

$$$$
>  <Molecule>
COc1cc(C)c(S(=O)(=O)N2CCCCC2COCC(=O)N2CCN(c3ccncc3)CC2)c(C)c1 (centres unmarked) [Example 147]

>  <Target Entity>
human B1R receptor (Homo sapiens, UniProt P46663)

>  <Measured Quantity>
inhibition at 10 µM

>  <Value>
100

$$$$
>  <Molecule>
CC(C)c1cc(C(C)C)c(S(=O)(=O)N2CCCCC2COCC(=O)N2CCN(C3CCN(C)CC3)CC2)c(C(C)C)c1 (centres unmarked) [Example 119]

>  <Target Entity>
human B1R receptor (Homo sapiens, UniProt P46663)

>  <Measured Quantity>
inhibition at 10 µM

>  <Value>
95.9

$$$$
>  <Molecule>
COc1cccc(N2CCN(C(=O)COCC3CCCCN3S(=O)(=O)c3c(C)cc(C)cc3C)CC2)c1 (centres unmarked) [Example 77]

>  <Target Entity>
human B1R receptor (Homo sapiens, UniProt P46663)

>  <Measured Quantity>
inhibition at 10 µM

>  <Value>
48

$$$$
>  <Molecule>
O=C(COCC1CCCCN1S(=O)(=O)c1ccc(Cl)c(Cl)c1)N1CCN(c2ccccc2F)CC1 (centres unmarked) [Example 86]

>  <Target Entity>
human B1R receptor (Homo sapiens, UniProt P46663)

>  <Measured Quantity>
inhibition at 10 µM

>  <Value>
43.2

$$$$
>  <Molecule>
CN1CCC(N2CCN(C(=O)COCC3CCCCN3S(=O)(=O)c3cc(Cl)sc3Cl)CC2)CC1 (centres unmarked) [Example 170, dihydrochloride]

>  <Target Entity>
human B1R receptor (Homo sapiens, UniProt P46663)

>  <Measured Quantity>
inhibition at 10 µM

>  <Value>
101

$$$$
>  <Molecule>
Cc1cccc(Cl)c1S(=O)(=O)N1CCCCC1COCC(=O)N1CCN(C2CCN(C)CC2)CC1 (centres unmarked) [Example 109]

>  <Target Entity>
human B1R receptor (Homo sapiens, UniProt P46663)

>  <Measured Quantity>
inhibition at 10 µM

>  <Value>
103

$$$$
>  <Molecule>
COc1cc(C)c(S(=O)(=O)N2CCCCC2COCC(=O)N2CCC(N3CCC(F)CC3)CC2)c(C)c1 (centres unmarked) [Example 130]

>  <Target Entity>
human B1R receptor (Homo sapiens, UniProt P46663)

>  <Measured Quantity>
inhibition at 10 µM

>  <Value>
103

$$$$
>  <Molecule>
COc1cc(C)c(S(=O)(=O)N2CCCCC2COCC(=O)N2CCN(C3CCC(C)CC3)CC2)c(C)c1 (centres unmarked) [Example 105]

>  <Target Entity>
human B1R receptor (Homo sapiens, UniProt P46663)

>  <Measured Quantity>
inhibition at 10 µM

>  <Value>
106

$$$$
>  <Molecule>
COc1cc(C)c(S(=O)(=O)N2CCCCC2COCC(=O)N2CCC(N3CCc4cnccc4C3)CC2)c(C)c1 (centres unmarked) [Example 100]

>  <Target Entity>
human B1R receptor (Homo sapiens, UniProt P46663)

>  <Measured Quantity>
inhibition at 10 µM

>  <Value>
104

$$$$
>  <Molecule>
COc1cc(C)c(S(=O)(=O)N2CCCC2COCC(=O)N2CCN(c3ccccn3)CC2)c(C)c1 (centres unmarked) [Example 305]

>  <Target Entity>
human B1R receptor (Homo sapiens, UniProt P46663)

>  <Measured Quantity>
inhibition at 10 µM

>  <Value>
76.4

$$$$
>  <Molecule>
COc1cc(C)c(S(=O)(=O)N2CCCC2COCC(=O)N(C)C(CN2CCCC2)c2ccccc2)c(C)c1 (centres unmarked) [Example 450]

>  <Target Entity>
human B1R receptor (Homo sapiens, UniProt P46663)

>  <Measured Quantity>
inhibition at 10 µM

>  <Value>
87.4

$$$$
>  <Molecule>
O=C(COCC1CCCN1S(=O)(=O)c1c(Cl)cc(Cl)cc1Cl)NCc1ccc(N2CCCCC2)cc1 (centres unmarked) [Example 71]

>  <Target Entity>
human B1R receptor (Homo sapiens, UniProt P46663)

>  <Measured Quantity>
inhibition at 10 µM

>  <Value>
53.2

$$$$
>  <Molecule>
COc1cc(C)c(S(=O)(=O)N2CCCC2COCC(=O)Nc2ccc(CCc3nc4ccccc4n3C)cc2)c(C)c1 (centres unmarked) [Example 470]

>  <Target Entity>
human B1R receptor (Homo sapiens, UniProt P46663)

>  <Measured Quantity>
inhibition at 10 µM

>  <Value>
92.7

$$$$
>  <Molecule>
CN1CCC(N2CCN(C(=O)COCC3CCCCN3S(=O)(=O)c3c(Cl)cc(Br)cc3Cl)CC2)CC1 (centres unmarked) [Example 160, dihydrochloride]

>  <Target Entity>
human B1R receptor (Homo sapiens, UniProt P46663)

>  <Measured Quantity>
inhibition at 10 µM

>  <Value>
99

$$$$
>  <Molecule>
COc1cc(C)c(S(=O)(=O)N2CCCCC2COCC(=O)NCc2cccc(N3CCCCC3)c2)c(C)c1 (centres unmarked) [Example 430]

>  <Target Entity>
human B1R receptor (Homo sapiens, UniProt P46663)

>  <Measured Quantity>
inhibition at 10 µM

>  <Value>
38.6

$$$$
>  <Molecule>
CN1CCC(N2CCN(C(=O)COCC3CCc4ccccc4N3S(=O)(=O)c3ccc4ccccc4c3)CC2)CC1 (centres unmarked) [Example 203]

>  <Target Entity>
human B1R receptor (Homo sapiens, UniProt P46663)

>  <Measured Quantity>
inhibition at 10 µM

>  <Value>
103

$$$$
>  <Molecule>
Cc1cc(C)c(S(=O)(=O)N2Cc3ccccc3CC2COCC(=O)N2CCC(N3CCN(C)CC3)CC2)c(C)c1 (centres unmarked) [Example 292]

>  <Target Entity>
human B1R receptor (Homo sapiens, UniProt P46663)

>  <Measured Quantity>
inhibition at 10 µM

>  <Value>
106

$$$$
>  <Molecule>
COc1cc(C)c(S(=O)(=O)N2CCCC2COCC(=O)N2CCCC2Cc2cccc(C)n2)c(C)c1 (centres unmarked) [Example 448]

>  <Target Entity>
human B1R receptor (Homo sapiens, UniProt P46663)

>  <Measured Quantity>
inhibition at 10 µM

>  <Value>
85.8

$$$$
>  <Molecule>
COc1ccc(S(=O)(=O)N2c3ccccc3CC2COCC(=O)Nc2cccc(CN3CCCCC3)c2)cc1 (centres unmarked) [Example 423]

>  <Target Entity>
human B1R receptor (Homo sapiens, UniProt P46663)

>  <Measured Quantity>
inhibition at 10 µM

>  <Value>
58.7

$$$$
>  <Molecule>
COc1cc(C)c(S(=O)(=O)N2CCC[C@@H]2COCC(=O)N2CCN(C3CCN(C)CC3)CC2)c(C)c1C [Example 140, dihydrochloride]

>  <Target Entity>
human B1R receptor (Homo sapiens, UniProt P46663)

>  <Measured Quantity>
inhibition at 10 µM

>  <Value>
100

$$$$
>  <Molecule>
COc1cc(C)c(S(=O)(=O)N2Cc3ccccc3CC2COCC(=O)N2CCN(C3CCN(C)CC3)CC2)c(C)c1C (centres unmarked) [Example 562]

>  <Target Entity>
human B1R receptor (Homo sapiens, UniProt P46663)

>  <Measured Quantity>
inhibition at 10 µM

>  <Value>
102

$$$$
>  <Molecule>
COc1cc(C)c(S(=O)(=O)N2CCCC2COCC(=O)N2CCN(c3ccc(C(F)(F)F)cn3)CC2)c(C)c1 (centres unmarked) [Example 468]

>  <Target Entity>
human B1R receptor (Homo sapiens, UniProt P46663)

>  <Measured Quantity>
inhibition at 10 µM

>  <Value>
84.5

$$$$
>  <Molecule>
O=C(COCC1Cc2ccccc2CN1S(=O)(=O)c1ccc(Cl)cc1Cl)N1CCCC1CN1CCCCC1 (centres unmarked) [Example 51]

>  <Target Entity>
human B1R receptor (Homo sapiens, UniProt P46663)

>  <Measured Quantity>
inhibition at 10 µM

>  <Value>
65.1

$$$$
>  <Molecule>
CN1CCC(N2CCN(C(=O)COCC3CCCCN3S(=O)(=O)c3csc4ccccc34)CC2)CC1 (centres unmarked) [Example 137]

>  <Target Entity>
human B1R receptor (Homo sapiens, UniProt P46663)

>  <Measured Quantity>
inhibition at 10 µM

>  <Value>
102

$$$$
>  <Molecule>
Cc1ccc(Cl)cc1N1CCN(C(=O)COCC2CCCCN2S(=O)(=O)c2c(Cl)cccc2Cl)CC1 (centres unmarked) [Example 321]

>  <Target Entity>
human B1R receptor (Homo sapiens, UniProt P46663)

>  <Measured Quantity>
inhibition at 10 µM

>  <Value>
41.2

$$$$
>  <Molecule>
COc1ccc(N2CCN(C(=O)COCC3CCCN3S(=O)(=O)c3c(Cl)cccc3Cl)CC2)cc1 (centres unmarked) [Example 325]

>  <Target Entity>
human B1R receptor (Homo sapiens, UniProt P46663)

>  <Measured Quantity>
inhibition at 10 µM

>  <Value>
102

$$$$
